test: Brain-to-plasma ratio (Kp) determination in Sprague-Dawley rats; settings: male, rat, brain (homogenate) versus plasma, po, 10 mg/kg
valueType: Kp at 4 h

Known results for compounds:
{"compound": "CCN1CCN(C(=O)c2ccc(Nc3ncc(F)c(-c4cc5nc(C)n(C(C)C)c5s4)n3)nc2)CC1", "Kp at 4 h": "< 1"}
{"compound": "Cc1c(-c2nc(Nc3ccc(C4CCN(C(C)C)C4)cn3)ncc2F)sc2c(C(C)C)cn(C)c(=O)c12 (stereo not shown)", "Kp at 4 h": "1 to 3"}
{"compound": "CCN1CCN(c2ccc(Nc3ncc(F)c(-c4sc5c(nc(C)n5C(C)C)c4C)n3)nc2)CC1", "Kp at 4 h": "1 to 3"}

Look at each compound and report its Kp at 4 h.
1. CCN1CCN(c2ccc(Nc3ncc(F)c(-c4sc5c(nc(C)n5C5CCC5)c4C)n3)nc2)CC1
2. CCN1C2CC1CN(c1ccc(Nc3ncc(F)c(-c4cc5nc(C)n(C(C)C)c5s4)n3)nc1)C2
3. CCN1CCN(Cc2ccc(Nc3ncc(F)c(-c4sc5c(nc(C)n5C(C)C)c4C)n3)nc2)CC1
4. Cc1c(-c2nc(Nc3ccc(C4CCN(C)CC4)cn3)ncc2F)sc2c(C(C)C)cn(C)c(=O)c12
5. Cc1c(-c2nc(Nc3ccc(C4CCN(C)CC4)cn3)ncc2F)sc2c(C(C)C)cncc12
6. CCN1CCN(Cc2ccc(Nc3ncc(F)c(-c4sc5c(C(C)C)cn(C)c(=O)c5c4C)n3)nc2)CC1
7. Cc1c(-c2nc(Nc3ccc(C4CCN(C)CC4)cn3)ncc2F)sc2c(C(C)C)c[nH]c(=O)c12
8. CCN1CCN(c2ccc(Nc3ncc(F)c(-c4sc5c(nc(C)n5C5CCCC5)c4C)n3)nc2)CC1

["1 to 3", "< 1", "< 1", "> 3", "> 3", "< 1", "< 1", "1 to 3"]

Could you tell me Kp at 4 h for each of these compounds? They are listed below.
1. CCN1CCN(Cc2ccc(Nc3ncc(F)c(-c4sc5c(ncn5C(C)C)c4C)n3)nc2)CC1
2. CCN1CC2(C1)CN(c1ccc(Nc3ncc(F)c(-c4cc5ncn(C(C)C)c5s4)n3)nc1)C2
3. Cc1nc2cc(-c3nc(Nc4ccc(C5CCN(C)CC5)cn4)ncc3C(F)(F)F)sc2n1C(C)C

1. 1 to 3
2. 1 to 3
3. 1 to 3

Okay, here is my list. What is Kp at 4 h for each of these?
1. Cc1c(-c2nc(Nc3ccc(C4CCN(C5CCOC5)CC4)cn3)ncc2F)sc2c(C(C)C)cn(C)c(=O)c12 (stereo not shown)
2. Cc1c(-c2nc(Nc3ccc(N4CCC(N(C)C)C4)cn3)ncc2F)sc2c1nc(C)n2C(C)C (stereo not shown)

1: 1 to 3; 2: 1 to 3

Provide Kp at 4 h values for the following items, in order.
1. Cc1c(-c2nc(Nc3ccc(N4CCN(C(C)C)CC4)cn3)ncc2F)sc2c(C(C)C)cn(C)c(=O)c12
2. Cc1c(-c2nc(Nc3ccc(N4C[C@@H]5CN(C)C[C@H]5C4)cn3)ncc2F)sc2c(C(C)C)cn(C)c(=O)c12
3. Cc1c(-c2nc(Nc3ccc(N4C[C@H]5CN(C)C[C@H]5C4)cn3)ncc2F)sc2c(C(C)C)cn(C)c(=O)c12

1. > 3
2. < 1
3. 1 to 3

Required: Kp at 4 h, one value per compound below.
1. Cc1c(-c2nc(Nc3ccc(C4CCCN(C)C4)cn3)ncc2Cl)sc2c1ncn2C(C)C (stereo not shown)
2. CCN1CC2(C1)CN(c1ccc(Nc3ncc(F)c(-c4sc5c(nc(C)n5C(C)C)c4C)n3)nc1)C2
3. CCN1CCC(c2ccc(Nc3ncc(F)c(-c4sc5c(ncn5C(C)C)c4C)n3)nc2)CC1
4. CCN1CC2(C1)CN(c1ccc(Nc3ncc(F)c(-c4cc5nccc(C(C)C)c5s4)n3)nc1)C2
5. CCN1CCC(c2ccc(Nc3ncc(F)c(-c4sc5c(nc(C)n5C5CCC5)c4C)n3)nc2)CC1
6. Cc1c(-c2nc(Nc3ccc(C4CCN(C)CC4)nn3)ncc2F)sc2c(C(C)C)cn(C)c(=O)c12

1. 1 to 3
2. 1 to 3
3. 1 to 3
4. > 3
5. 1 to 3
6. < 1

Items follow; give Kp at 4 h for each.
1. Cc1c(-c2nc(Nc3ccc(C4CCCN(C)C4)cn3)ncc2F)sc2c1ncn2C(C)C (single isomer, unassigned)
2. CCN1CC2(C1)CN(c1ccc(Nc3ncc(F)c(-c4sc5c(C(C)C)cn(C)c(=O)c5c4C)n3)nc1)C2
3. CCN1CC2(C1)CN(c1ccc(Nc3ncc(F)c(-c4sc5c(C(C)C)n(C)nc5c4C)n3)nc1)C2

1 to 3
1 to 3
> 3

###

biological target: CDK4/Cyclin D1 (Homo sapiens (Human), UniProt P11802); test: CDK4/CyclinD1 enzymatic activity assay (TR-FRET); details: ATP 2 mM, read-out: CDK4_D1 IC50
Sequence (P11802 whole entry): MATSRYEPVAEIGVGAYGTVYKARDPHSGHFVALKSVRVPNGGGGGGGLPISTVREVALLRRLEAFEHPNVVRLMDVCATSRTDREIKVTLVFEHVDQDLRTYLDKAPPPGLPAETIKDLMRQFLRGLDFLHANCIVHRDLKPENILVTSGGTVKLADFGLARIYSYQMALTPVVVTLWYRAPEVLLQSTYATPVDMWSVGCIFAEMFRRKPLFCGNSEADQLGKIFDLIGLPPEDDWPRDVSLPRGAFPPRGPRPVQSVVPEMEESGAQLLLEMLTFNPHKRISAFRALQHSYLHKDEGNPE
Sequence (P24385 whole entry partner): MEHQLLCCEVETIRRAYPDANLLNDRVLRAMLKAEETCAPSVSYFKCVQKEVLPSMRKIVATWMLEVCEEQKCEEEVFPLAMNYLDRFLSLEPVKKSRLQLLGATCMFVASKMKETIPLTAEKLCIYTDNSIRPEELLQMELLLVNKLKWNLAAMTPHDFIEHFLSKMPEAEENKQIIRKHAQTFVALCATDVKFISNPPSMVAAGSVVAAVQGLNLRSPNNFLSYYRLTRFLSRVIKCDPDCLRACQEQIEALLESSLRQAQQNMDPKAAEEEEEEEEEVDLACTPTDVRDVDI
pIC50: −log10 of the molar value.
Can you tell me pIC50 for the items I'm about to list?

The examples below pair each entry with its known result.
{"mol": "Cc1c(-c2nc(Nc3ccc(N4CCOCC4)cn3)ncc2F)sc2c(C3CCCC3)ccnc12", "valueType": "pIC50", "obsValue": "6.70 to 7.70"}
{"mol": "Fc1cnc(Nc2ccc(N3CCOCC3)cn2)nc1-c1cc2nccc(C3CCCC3)c2s1", "valueType": "pIC50", "obsValue": "6.70 to 7.70"}
{"mol": "CCN1CC2(C1)CN(c1ccc(Nc3ncc(F)c(-c4sc5c(C(C)(C)OC)n(C)nc5c4C)n3)nc1)C2", "valueType": "pIC50", "obsValue": "≥ 7.70"}
{"mol": "CC(C)c1c2sc(-c3nc(Nc4ccc(C5CCN(C)CC5)cn4)ncc3F)cc2nn1C", "valueType": "pIC50", "obsValue": "≥ 7.70"}
{"mol": "Fc1cnc(Nc2ccc(N3CCC(F)(F)C3)cn2)nc1-c1cc2nccc(C3CCCC3)c2s1", "valueType": "pIC50", "obsValue": "5.70 to 6.70"}

Go through the items and report each one's pIC50.
1. Cc1nc2cc(-c3nc(Nc4ccc(N5CCN(C)CC5)cn4)ncc3F)sc2n1C1CCCC1
2. CN1CCN(c2ccc(Nc3ncc(F)c(-c4cc5nccc(C6CCCC6)c5s4)n3)nc2)CC1
3. CCN1C2CC1CN(c1ccc(Nc3ncc(F)c(-c4cc5nc(C)n(C(C)C)c5s4)n3)nc1)C2

≥ 7.70
6.70 to 7.70
≥ 7.70

###

Task for the reader: assign each of the following compounds its reported IC50.
molecular target: CDK4/Cyclin D1 (Homo sapiens (Human), UniProt P11802); experiment: CDK4/CyclinD1 enzymatic activity assay (TR-FRET); details: ATP 2 mM, read-out: CDK4_D1 IC50

Recorded results for 8 compounds are shown here.
{"compound": "CCN1CCN(Cc2ccc(Nc3ncc(F)c(-c4cc5nccc(C(C)(O)C(F)(F)F)c5s4)n3)nc2)CC1 (centres unmarked)", "targetOfAssay": "CDK4/Cyclin D1 (Homo sapiens (Human), UniProt P11802)", "IC50": "20 to 200 nM"}
{"compound": "Cc1c(-c2nc(Nc3ccc(C4CCN(C)CC4)cn3)ncc2F)sc2c1nc(C)n2C1CCCC1", "targetOfAssay": "CDK4/Cyclin D1 (Homo sapiens (Human), UniProt P11802)", "IC50": "≤ 20 nM"}
{"compound": "Cc1c(-c2nc(Nc3ccc(N4CCN(C)CC4)cn3)ncc2F)sc2c(C3CCCC3)nccc12", "targetOfAssay": "CDK4/Cyclin D1 (Homo sapiens (Human), UniProt P11802)", "IC50": "200 to 2000 nM"}
{"compound": "Cc1c(-c2nc(Nc3ccc(C4CCN(C)CC4)cn3)ncc2F)sc2c(C(C)C)cn(C)c(=O)c12", "targetOfAssay": "CDK4/Cyclin D1 (Homo sapiens (Human), UniProt P11802)", "IC50": "≤ 20 nM"}
{"compound": "Cc1c(-c2nc(Nc3ccc(N4CCN(C)CC4)cn3)ncc2F)sc2c(C3CCCC3)ccnc12", "targetOfAssay": "CDK4/Cyclin D1 (Homo sapiens (Human), UniProt P11802)", "IC50": "20 to 200 nM"}
{"compound": "Cc1c(-c2nc(Nc3ccc(C4CCN(C)CC4)cn3)ncc2F)sc2c(C(C)C)cncc12", "targetOfAssay": "CDK4/Cyclin D1 (Homo sapiens (Human), UniProt P11802)", "IC50": "≤ 20 nM"}
{"compound": "CCN1CCN(c2ccnc(Nc3ncc(F)c(-c4sc5c(nc(C)n5C(C)C)c4C)n3)c2)CC1", "targetOfAssay": "CDK4/Cyclin D1 (Homo sapiens (Human), UniProt P11802)", "IC50": "200 to 2000 nM"}
{"compound": "CCN1CC2(C1)CN(c1ccc(Nc3ncc(F)c(-c4cc5nccc(C(C)(C)O)c5s4)n3)nc1)C2", "targetOfAssay": "CDK4/Cyclin D1 (Homo sapiens (Human), UniProt P11802)", "IC50": "≤ 20 nM"}

Hi! Can you tell me IC50 for each of these compounds?
1. CCN1CC2(C1)CN(c1ccc(Nc3ncc(F)c(-c4sc5c(nc(C)n5C(C)C)c4C)n3)nn1)C2
2. Cc1c(-c2nc(Nc3ccc(N4CCN(C)CC4)cn3)ncc2F)sc2c1nc(C)n2C(C)C
3. CCN1CCC(c2ccc(Nc3ncc(F)c(-c4sc5c(C(C)C)cn(C)c(=O)c5c4C)n3)nc2)CC1
4. Cc1nc2cc(-c3nc(Nc4ccc(OC5CCN(C)C5)cn4)ncc3F)sc2n1C(C)C (centres unmarked)
5. Cc1c(-c2nc(Nc3ccc(N4CC5(CCN(C)C5)C4)cn3)ncc2F)sc2c(C(C)C)cn(C)c(=O)c12
6. CCN1CCC(c2ccc(Nc3ncc(F)c(-c4sc5c(ncn5C(C)C)c4C)n3)nc2)CC1
7. Cc1c(-c2nc(Nc3ccc(N4CCN5CCC4CC5)cn3)ncc2F)sc2c(C(C)C)cn(C)c(=O)c12

≤ 20 nM
≤ 20 nM
≤ 20 nM
≤ 20 nM
≤ 20 nM
≤ 20 nM
≤ 20 nM

For every item in the list below, what is its measured IC50?
1. CCN1CCN(Cc2ccc(Nc3ncc(F)c(-c4sc5c(nc(C)n5C5CCCC5)c4C)n3)nc2)CC1
2. CCN1CCN(c2ccc(Nc3ncc(F)c(-c4cc5c(s4)c(C(C)C)cc[n+]5[O-])n3)nc2)CC1
3. CC(C)c1cn(C)c(=O)c2cc(-c3nc(Nc4ccc(C5CCN(C)CC5)cn4)ncc3F)sc12
4. Cc1c(-c2nc(Nc3ccc(N4C[C@@H]5CN(C)C[C@H]5C4)cn3)ncc2F)sc2c(C(C)C)cn(C)c(=O)c12

1: 200 to 2000 nM; 2: ≤ 20 nM; 3: ≤ 20 nM; 4: ≤ 20 nM

Which IC50 value is on record for Cc1c(-c2nc(Nc3ccc(N4CCN(C(C)C)CC4)cn3)ncc2F)sc2c(C(C)C)cn(C)c(=O)c12 ? ≤ 20 nM
